Organism: Rattus norvegicus
assay-protocol: Inhibition of rat small intestine alpha-glucosidase at 10 ug/ml using maltose/glucose as substrate incubated for 10 mins followed by substrate addition measured after 10 mins relative to control
value-kind: inhibition (%)

Below are worked cases with known answers.
Cc1cc(NS(=O)(=O)c2ccc(NCC(=O)Nc3cccc([C@H](NC(=O)OCc4ccccc4)C(=O)O)c3)cc2)no1	8.89
O=C(Cn1cnc2ccccc21)Nc1cccc([C@H](NC(=O)OCc2ccccc2)C(=O)O)c1	0.99
COC(=O)[C@@H](NC(=O)OCc1ccccc1)c1cccc(NC(=O)CSc2nc3ccccc3[nH]2)c1	9.26
O=C(CSc1nc2ccccc2[nH]1)Nc1cccc([C@H](NC(=O)OCc2ccccc2)C(=O)O)c1	12.6
COC(=O)[C@@H](NC(=O)OCc1ccccc1)c1cccc(NC(=O)CN2C(=O)c3ccccc3C2=O)c1	17.5

1: COC(=O)[C@@H](NC(=O)OCc1ccccc1)c1cccc(NC(=O)CNc2ccc(S(=O)(=O)Nc3cc(C)on3)cc2)c1
2: O=C(CN1C(=O)c2ccccc2C1=O)Nc1cccc([C@H](NC(=O)OCc2ccccc2)C(=O)O)c1
// select label with min value of measured inhibition from [ 1 , 2 ] Pick one; state its label. 1
